# Tested On: T1, polyhistidine-tagged human PD-1 (hPD1-His, 98AFK) (human, UniProt Q15116 25-167, limits assumed)
# T1 construct: also called human PD1-His; Human PD-1-His
# T1 sequence (Q15116 25-167 limits assumed): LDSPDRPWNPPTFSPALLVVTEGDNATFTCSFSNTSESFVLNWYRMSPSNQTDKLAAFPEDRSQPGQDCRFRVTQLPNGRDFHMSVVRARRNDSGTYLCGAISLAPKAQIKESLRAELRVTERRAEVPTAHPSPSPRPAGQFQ
# Experiment Notes: SPR solution affinity; reference Humanized 08A IgG4 S61N (98AIO)
# KD (REF)/KD annotations
Answer using only a numeral; do not append any unit.

Binder	Reported Value
Humanized 08A IgG4 Fab 098 G56A (antibody, V domains shown, IgG4 S228P / kappa; also called 90AVZ) VH: EVQLVQSGAEVKKPGASVKVSCKASGYTFTSYYLYWVRQAPGQGLEWIGGVNPSNAGTNFSEKFKSRVTLTVDTSISTAYMELSRLRSDDTAVYYCTRRLSHYDGGFDYWGQGTTVTVSS VL: DIVMTQTPLSLSVTPGQPASISCRASKSVSTSGFSYLHWYLQKPGQPPQLLIFLASNLESGVPDRFSGSGSGTDFTLKISRVEAEDVGVYYCQHSWELPLTFGQGTKLEIKR	1.7

Consider the record given below.
Q: Tell me the measured KD (REF)/KD of Humanized 08A IgG4 S61N G56A (antibody, V domains shown, IgG4 S228P / kappa; also called 51AQK; Humanized x [PD-1_H] mAb (08A/HuPD1A-11 S61N VH G56A / VL) IgG4 S228P / Kappa) VH: EVQLVQSGAEVKKPGASVKVSCKASGYTFTSYYLYWVRQAPGQGLEWIGGVNPSNAGTNFNEKFKSRVTLTVDTSISTAYMELSRLRSDDTAVYYCTRRDSNYDGGFDYWGQGTTVTVSS VL: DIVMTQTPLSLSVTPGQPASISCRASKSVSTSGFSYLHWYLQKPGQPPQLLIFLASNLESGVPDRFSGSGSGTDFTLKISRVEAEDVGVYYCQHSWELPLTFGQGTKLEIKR , please.
Ans: 1
